target: human glucagon receptor (human, UniProt P47871 26-477); test: cell-based or functional assay
Sequence (P47871 26-477): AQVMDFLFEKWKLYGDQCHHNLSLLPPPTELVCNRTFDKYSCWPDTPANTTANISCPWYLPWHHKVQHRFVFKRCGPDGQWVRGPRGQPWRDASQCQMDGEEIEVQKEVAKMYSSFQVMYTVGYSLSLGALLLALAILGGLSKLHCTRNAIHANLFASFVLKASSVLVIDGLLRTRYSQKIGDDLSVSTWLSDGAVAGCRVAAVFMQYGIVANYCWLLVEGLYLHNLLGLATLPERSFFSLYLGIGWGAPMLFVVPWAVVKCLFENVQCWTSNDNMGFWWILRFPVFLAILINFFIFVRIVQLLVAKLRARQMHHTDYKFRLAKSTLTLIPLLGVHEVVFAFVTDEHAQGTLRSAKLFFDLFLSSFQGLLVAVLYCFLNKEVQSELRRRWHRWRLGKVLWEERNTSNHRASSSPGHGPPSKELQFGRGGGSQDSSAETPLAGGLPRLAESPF
Starred links: 1 amine or outer side, 2 acyl side, 3 side chain; linkers in the order of their positions; H or OH if unused. Non-standard residues stand in square brackets, D forms with d. Groups on a side chain read outwards from the residue. No end group written: not given here. *: point of attachment. C20 diacid = O=C(O)CCCCCCCCCCCCCCCCCCC(=O)*; C18 diacid = O=C(O)CCCCCCCCCCCCCCCCC(=O)*; γGlu = O=C(O)[C@H](CCC(=O)[*:2])N[*:1]; αMeF = C[C@](N)(Cc1ccccc1)C(=O)O; AEEA = NCCOCCOCC(=O)O; Aib = CC(C)(N)C(=O)O

binder	hGluc-R EC50 (pM), cAMP
H[Aib]HGS[αMeF]TSDVSK[αMeF]LDSRAAK([AEEA-C20 diacid])D[αMeF]VQ[Aib]IANT-NH2 [Peptide 278]	83.5
H[Aib]HGS[αMeF]TSDVSK[αMeF]LDSRAAK([γGlu-γGlu-C18 diacid])D[αMeF]VQ[Aib]IANT-NH2 [Peptide 270]	31.3
H[Aib]HGS[αMeF]TSDVSK[αMeF]LDSRAAK([AEEA-AEEA-C20 diacid])D[αMeF]VQ[Aib]IANT-NH2 [Peptide 277]	57.3
H[Aib]HGS[αMeF]TSDVSKYLDSRAAK([AEEA-AEEA-γGlu-γGlu-C20 diacid])D[αMeF]VQ[Aib]IANT-NH2 (also: F6: αMePhe per table, X13: αMePhe, Y per table) [Peptide 283]	552
